Assay: Stability of M6G salts at room temperature over 6 years, HPLC
Assay type: physicochemical
Conditions: 0 years
measured_endpoint: HN-33177 (%)
Give the value, in units of %, as a plain number.

molecule: CN1CCC23c4c5ccc(O)c4OC2C(OC2OC(C(=O)O)C(O)C(O)C2O)C=CC3C1C5.CN1CCC23c4c5ccc(O)c4OC2C(OC2OC(C(=O)O)C(O)C(O)C2O)C=CC3C1C5.O=S(=O)(O)O (stereo not shown) [Morphine-6-glucuronide sulphate]
value_units: %
HN-33177: 0.2

-- ask For the molecule CN1CC[C@]23c4c5ccc(O)c4O[C@H]2[C@@H](O[C@@H]2O[C@H](C(=O)O)[C@@H](O)[C@H](O)[C@H]2O)C=C[C@H]3[C@H]1C5.Cl [Morphine-6-glucuronide hydrochloride] , give its reported HN-33177.
-- reply 0.3

-- ask Specify HN-33177 for Br.CN1CC[C@]23c4c5ccc(O)c4O[C@H]2[C@@H](O[C@@H]2O[C@H](C(=O)O)[C@@H](O)[C@H](O)[C@H]2O)C=C[C@H]3[C@H]1C5 [Morphine-6-glucuronide hydrobromide] and stop.
-- reply 0.3

-- ask Please indicate HN-33177 recorded for CN1CC[C@]23c4c5ccc(O)c4O[C@H]2[C@@H](O[C@@H]2O[C@H](C(=O)O)[C@@H](O)[C@H](O)[C@H]2O)C=C[C@H]3[C@H]1C5 [Morphine-6-glucuronide base, morphine-6-β-D-glucuronide]
-- reply 0.7
